// reported inhibition at 200 µM per item
Molecular target: Saccharomyces cerevisiae α-glucosidase (Saccharomyces cerevisiae, UniProt P53341)
Construct: purchased
Sequence (P53341 whole entry): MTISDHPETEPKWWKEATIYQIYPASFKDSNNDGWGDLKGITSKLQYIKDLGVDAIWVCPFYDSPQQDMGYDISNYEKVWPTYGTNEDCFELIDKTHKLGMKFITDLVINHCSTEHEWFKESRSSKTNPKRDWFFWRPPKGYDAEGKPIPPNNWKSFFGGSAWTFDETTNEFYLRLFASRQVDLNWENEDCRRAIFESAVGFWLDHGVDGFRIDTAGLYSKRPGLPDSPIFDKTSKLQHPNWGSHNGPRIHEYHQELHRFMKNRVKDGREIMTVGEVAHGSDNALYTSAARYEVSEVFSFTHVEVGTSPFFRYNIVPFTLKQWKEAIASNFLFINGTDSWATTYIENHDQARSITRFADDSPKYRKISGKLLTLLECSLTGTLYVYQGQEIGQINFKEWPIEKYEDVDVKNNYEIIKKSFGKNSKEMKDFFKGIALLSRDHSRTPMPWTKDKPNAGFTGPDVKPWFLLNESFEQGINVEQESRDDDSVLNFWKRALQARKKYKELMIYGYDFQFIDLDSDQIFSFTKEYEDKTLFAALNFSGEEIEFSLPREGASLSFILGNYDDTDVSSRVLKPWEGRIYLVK
Assay: In vitro α-glucosidase inhibition assay (p-nitrophenyl glucopyranoside substrate)
Type: biochemical
Settings: 200 μM

Worked cases, answers included:
[[record]]
compound = "CCC(NC(=O)CN1C(=O)N/C(=C\\c2ccc3c(c2)OCO3)C1=O)C(=O)OC (stereo not shown)"
observed_value = "37.6%"

[[record]]
compound = "CCCC(NC(=O)CN1C(=O)N/C(=C\\c2ccc(C)cc2)C1=O)C(=O)OCC (stereo not shown)"
observed_value = "41.9%"

[[record]]
compound = "CCOC(=O)C(C)NC(=O)CN1C(=O)N/C(=C\\c2ccc(C)cc2)C1=O (stereo not shown)"
observed_value = "44.6%"


IN: Request: inhibition at 200 µM, test system Saccharomyces cerevisiae α-glucosidase (Saccharomyces cerevisiae, UniProt P53341), entry COC(=O)C(C)NC(=O)CN1C(=O)N/C(=C\c2ccc(OC)cc2)C1=O (stereo not shown)
OUT: 51.6%

IN: Request: inhibition at 200 µM, test system Saccharomyces cerevisiae α-glucosidase (Saccharomyces cerevisiae, UniProt P53341), entry COC(=O)C(C)NC(=O)CN1C(=O)N/C(=C\c2ccc(C)cc2)C1=O (stereo not shown)
OUT: 51.4%

IN: Request: inhibition at 200 µM, test system Saccharomyces cerevisiae α-glucosidase (Saccharomyces cerevisiae, UniProt P53341), entry O=C(O[C@@H]1Cc2c(O)cc(O)cc2O[C@@H]1c1cc(O)c(O)c(O)c1)c1cc(O)c(O)c(O)c1 [EGCG, Epigallocatechin gallate, reference compound]
OUT: 97%

IN: Request: inhibition at 200 µM, test system Saccharomyces cerevisiae α-glucosidase (Saccharomyces cerevisiae, UniProt P53341), entry COC(=O)C(C)NC(=O)CN1C(=O)N/C(=C\c2ccc3c(c2)OCO3)C1=O (stereo not shown)
OUT: 57.4%
